tested on: Escherichia coli; experiment: Antibacterial activity against Escherichia coli TG1 incubated for 12 hrs by microdilution method; assay type: functional
Bridges are numbered along the chain shown (N, C = ends). Roman numbers before positions name the chains, in order.
MIC by entry:
The reply should be a number in µM, with the unit left off.

Give reported MIC for I: H-KKLLGKNWKLMKK-NH2 / II: H-KKLLGKNWKLMK / III: H-KKLLGKNWKLM / IV: H-KKLLGKNWKLM (amide I:12-IV:C, I:13-II:C, II:12-III:C) (Escherichia coli)
3

Lab note: record MIC of I: H-LSAAHRLAIGRRKK-NH2 / II: H-LSAAHRLAIGRRK / III: H-LSAAHRLAIGRR / IV: H-LSAAHRLAIGRR (amide I:13-IV:C, I:14-II:C, II:13-III:C) tested on Escherichia coli.
12.5

Read the next record carefully.
Report MIC under test system Escherichia coli for I: H-INLKAIAALAKKLLKK-NH2 / II: H-INLKAIAALAKKLLK / III: H-INLKAIAALAKKLL / IV: H-INLKAIAALAKKLL (amide I:15-IV:C, I:16-II:C, II:15-III:C) .
12.5

----------
experiment: Stability of compound in human serum at 180 uM measured after 24 hrs by HPLC-MS analysis; assay type: ADME, cell-free
Bridges are numbered along the chain shown (N, C = ends). Roman numbers before positions name the chains, in order.
Endpoint Name: Stability

Check out these entries, answers already filled in.
Provide Stability value for the following substance: I: H-TLLKKVLKAAAKKK-NH2 / II: H-TLLKKVLKAAAKK / III: H-TLLKKVLKAAAK / IV: H-TLLKKVLKAAAK (amide I:13-IV:C, I:14-II:C, II:13-III:C)
Stable

State, in one line, measured Stability of `H-GRFKRFRKKL-OH`
Unstable

Return the recorded Stability value; entry: `H-TLLKKVLKAAAK-OH`
Unstable

Fill in Stability for record `H-KKLLGKNWKLM-OH`
Unstable

Kindly indicate its recorded Stability. Item: I: H-KKLLGKNWKLMKK-NH2 / II: H-KKLLGKNWKLMK / III: H-KKLLGKNWKLM / IV: H-KKLLGKNWKLM (amide I:12-IV:C, I:13-II:C, II:12-III:C)
Stable

Supply reported Stability belonging to this substance: I: H-LLKKVLKAAAKKK-NH2 / II: H-LLKKVLKAAAKK / III: H-LLKKVLKAAAK / IV: H-LLKKVLKAAAK (amide I:12-IV:C, I:13-II:C, II:12-III:C)
Stable

State, in one line, measured Stability of I: H-GRFKRFRKKLKK-NH2 / II: H-GRFKRFRKKLK / III: H-GRFKRFRKKL / IV: H-GRFKRFRKKL (amide I:11-IV:C, I:12-II:C, II:11-III:C)
Unstable

Please turn your attention to the following entry.
Write down Stability measured for item `H-LLKKVLKAAAK-OH`
Unstable

----------
Reported MIC values for a set of substances
test system: Escherichia coli; experiment: Antibacterial activity against Escherichia coli TG1 incubated for 12 hrs by microdilution method; format: functional
Bridges are numbered along the chain shown (N, C = ends). Roman numbers before positions name the chains, in order.
The answer is to be given in µM; state only the numeric part.

Recorded results for 2 substances are shown here.
# return recorded MIC for entry I: H-KLLKRIKTLLKK-NH2 / II: H-KLLKRIKTLLK / III: H-KLLKRIKTLL / IV: H-KLLKRIKTLL (amide I:11-IV:C, I:12-II:C, II:11-III:C)
6

Item I: H-LLKKVLKAAAKKK-NH2 / II: H-LLKKVLKAAAKK / III: H-LLKKVLKAAAK / IV: H-LLKKVLKAAAK (amide I:12-IV:C, I:13-II:C, II:12-III:C) : provide MIC
1.5

Shift focus to the following entry.
Supply recorded MIC for I: H-KRLWHKVGPFKK-NH2 / II: H-KRLWHKVGPFK / III: H-KRLWHKVGPF / IV: H-KRLWHKVGPF (amide I:11-IV:C, I:12-II:C, II:11-III:C) here.
12.5
